# assay-text: growth inhibition, single agent and combos, cell-based, chromothripsis tumors, cisplatin or BGB combos (AID 1671450);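 also: cells exposed to compound for four days; 0% = vehicle DMSO and 100% = cell killing by high DMSO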
# measurement-parameters: HDN33 neuroblastoma cells, cisplatin combo, at 5 µM, stronger effect = higher value
Reported inhibition values for the following compounds.
Answer format: numeric, % implied, no suffix.

What the record says about CC(Oc1cc(-c2cnn(C3CCNCC3)c2)cnc1N)c1c(Cl)ccc(F)c1Cl (stereo not drawn) : inhibition is 68.7

What the record says about Nc1ccccc1NC(=O)c1cnccn1 : inhibition is 6.5

What the record says about COc1cccc2c1C(=O)c1c(O)c3c(c(O)c1C2=O)CC(O)(C(=O)CO)CC3OC1CC(N)C(OC2CCCCO2)C(C)O1 (stereo not drawn) : inhibition is 99.2

* * *

# assay-text: BT084 cell growth, single and combined drugs, ICGC_MB145, cisplatin and BGB IC40 combos (AID 1671461);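 also: cells exposed to drugs for 96 hours; 0% = vehicle DMSO and 100% = high DMSO full killing control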
# measurement-parameters: BT084 medulloblastoma cells, drug combinations, cisplatin combination, at 0.5 µM, stronger effect = higher value
reported-endpoint: inhibition (%)
Answer format: numeric, % implied, no suffix.

What the record says about CC1OC(CC(=O)O)CC2=C1C(=O)c1c(O)cccc1C2=O (stereo not given) : inhibition is 108

What the record says about C=C(C)C1CCC2(C(=O)O)CCC3(C)C(CCC4C5(C)CCC(O)C(C)(C)C5CCC43C)C12 (stereo not given) : inhibition is -2.33

What the record says about CC1CNC(=O)NC1=O (stereo not given) : inhibition is -19.5

What the record says about Cn1cnc2[nH]c(=O)[nH]c(=O)c21 : inhibition is -7.22

What the record says about C[C@@H]1O[C@@H](O[C@@H]2[C@@H](O)[C@H](OCCc3ccc(O)c(O)c3)O[C@H](CO)[C@H]2OC(=O)C=Cc2ccc(O)c(O)c2)[C@H](O)[C@H](O)[C@H]1O : inhibition is -21.1

What the record says about CN(C)C(=S)NN=C(c1ccccn1)c1ccccn1 : inhibition is 77.7

Further cases:
What the record says about C=C1CCC(O)CC1=CC=C1CCCC2(C)C1CCC2C(C)C=CC(C)C(C)C (stereo not given) : inhibition is -35.1

What the record says about Nc1ncn(C2OC(CO)C(O)C2O)c(=O)n1 (stereo not given) : inhibition is -8.96

What the record says about O=c1[nH]cnc2c1ncn2C1CCC(CO)O1 (stereo not given) : inhibition is 2.66

What the record says about CON=C1CN(c2nc3c(cc2F)c(=O)c(C(=O)O)cn3C2CC2)CC1CN (stereo not given) : inhibition is -2.65

What the record says about C[n+]1ccc(-c2c3nc(c(-c4cc[n+](C)cc4)c4ccc([nH]4)c(-c4cc[n+](C)cc4)c4nc(c(-c5cc[n+](C)cc5)c5ccc2[nH]5)C=C4)C=C3)cc1 : inhibition is -16.4

What the record says about NC(=S)NN=Cc1ncccc1N : inhibition is -29.3

What the record says about O=C(CCCCCCC(=O)Nc1ccc(I)cc1)NO : inhibition is 29.6

What the record says about CCC1(O)C(=O)OCc2c1cc1n(c2=O)Cc2cc3cc(O)ccc3nc2-1 (stereo not given) : inhibition is 54.4

What the record says about Cc1cc(C#N)cc(C)c1Oc1nc(Nc2ccc(C#N)cc2)nc(N)c1Br : inhibition is -20.9

* * *

# assay-text: MELAS cybrid and Rieske KO viability enhancers – cell-based, MELAS cybrids, Rieske KO mouse fibroblasts, CellTiter-Glo, primary screen (AID 1508586);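 also: z relative to plate mean and SD of compound and empty wells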
# measurement-parameters: Rieske KO mouse fibroblast survival, low glucose, CellTiter-Glo 72 h
Reported z-score values for the following compounds.
Just the number, please, no unit after it.

Below are worked cases with known answers.
What the record says about CNC(=O)c1ccccc1-c1cccc2ccccc12 : z-score is -0.242

What the record says about Nc1nc(Cl)nc2c1ncn2C1CC(O)C(CO)O1 (stereo unspecified) : z-score is 0.0981

What the record says about CCN(CC)C(=O)c1c(NC(=O)c2cccs2)sc2c1CCCC2 : z-score is 0.0357

What the record says about CC(C)CC(CC(=O)NO)C(=O)NC(Cc1ccc2ccccc2c1)C(=O)NC(C)C(=O)NCCN (stereo unspecified) : z-score is -0.379

Further cases:
What the record says about COC(=O)c1c(NC(=O)c2ccco2)c2cc(NC3CCOCC3)cnc2n1C : z-score is -0.251

What the record says about CC(C=CC(=O)NO)=CC(C)C(=O)c1ccc(N(C)C)cc1 (stereo unspecified) : z-score is -2.46

* * *

# assay-text: drug combination growth inhibition, ovarian cancer – cell-based, oncology-focused library, rucaparib conditional, profiling panel (AID 1508598)
# measurement-parameters: patient-derived ovarian cancer cells, CellTiter-Glo viability, 144 h; at 0.0195 µM; OCI-P5x cells; with rucaparib 20 µM; stronger effect = lower value; 100% = cells with rucaparib alone
reported-endpoint: viability (%)
Answer format: numeric, % implied, no suffix.

What the record says about CCCCCOC(=O)Nc1nc(=O)n([C@@H]2O[C@H](C)[C@@H](O)C2O)cc1F (some centres not stated) : viability is 115

Further cases:
What the record says about CC1(C)C=C(CN2C/C(=C/c3ccc(F)cc3)C(=O)/C(=C/c3ccc(F)cc3)C2)C(C)(C)N1O : viability is 71

What the record says about CC(=O)O[C@@]1(C(C)=O)CC[C@H]2[C@@H]3C=C(C)C4=CC(=O)CC[C@]4(C)[C@@H]3CC[C@@]21C : viability is 96.9

What the record says about CC(C)(C(=O)NCC(F)(F)C(F)(F)F)C(=O)N[C@H]1C(=O)Nc2ccccc2-c2ccccc21 : viability is 85.5

What the record says about CC(=O)O[C@@]1(C(C)=O)CC[C@H]2[C@@H]3C[C@H](C)C4=CC(=O)CC[C@]4(C)[C@@H]3CC[C@@]21C : viability is 104

* * *

Reported cell count values for the following compounds.
# assay-text: viability loss with induced miR-34 in A549 – imaging, A549 dox-inducible miR-34, nuclei and caspase counts, primary screen (AID 1347080)
# measurement-parameters: A549 miR-34 inducible, Hoechst nuclei count, 48 h; measured here: total cells without miR-34 induction
Just the number, please, no unit after it.

Below are worked cases with known answers.
What the record says about CON=C(C(=O)NC1C(=O)N2C(C(=O)OCOC(=O)C(C)(C)C)=C(C=Cc3scnc3C)CS[C@H]12)c1csc(N)n1 (some centres undefined) : cell count is 8900

What the record says about CCNc1nc(Nc2cc(F)c(C(=O)N3CCOCC3)cc2OC)ncc1C(F)(F)F : cell count is 8970

Further cases:
What the record says about C[C@@H](NCCc1ccc(O)cc1)[C@@H](O)c1ccc(O)cc1 : cell count is 10800

What the record says about CCCCC[C@H](O)/C=C/[C@@H]1[C@@H](C/C=C\CCCC(=O)O)[C@H]2CO[C@@H]1C2 : cell count is 6040

What the record says about CO[C@@H]1[C@@H](OC(N)=O)[C@@H](O)C(Oc2ccc3c(O)c(NC(=O)c4ccc(O)c(CC=C(C)C)c4)c(=O)oc3c2C)OC1(C)C (some centres undefined) : cell count is 11000

What the record says about Cc1ccc(NC(=O)c2ccc3nccnc3c2)cn1 : cell count is 10000

What the record says about COC1C(=O)[C@]2(C)C(OC)C[C@H]3OC[C@@]3(OC(C)=O)[C@H]2C(OC(=O)c2ccccc2)[C@@]2(O)CC(OC(=O)C(O)C(NC(=O)OC(C)(C)C)c3ccccc3)C(C)=C1C2(C)C (some centres undefined) : cell count is 2620

What the record says about CC(N)=O : cell count is 9870

What the record says about CN1CCCN(C(=O)c2cccc(-c3ccc(C=C4C(=O)Nc5ccc(Cl)cc54)o3)c2)CC1 : cell count is 3060

What the record says about CSc1ccccc1C(=O)N1CCc2[nH]nc(COc3ccccc3)c2C1 : cell count is 8920

What the record says about Cc1cc(-c2cnn(C)c2)nc(N)n1 : cell count is 10300

What the record says about Nc1nccc2c1ncn2C1C=C(CO)C(O)C1O (centres undefined) : cell count is 4800

What the record says about CC(C)CC(CC(=O)NO)C(=O)NC(Cc1ccc2ccccc2c1)C(=O)NC(C)C(=O)NCCN (centres undefined) : cell count is 8900

* * *

# assay-text: viability loss with induced miR-34 in A549 – imaging, A549 dox-inducible miR-34, nuclei and caspase counts, primary screen (AID 1347080)
# measurement-parameters: A549 miR-34 inducible, Hoechst nuclei count, 48 h; measured here: total cells without miR-34 induction
Decide using cell count alone. Strictly below 7000: TRUE. Equal to or above 7000: FALSE.

Below are worked cases with known answers.
Task item: Determine if COc1cc2c(cc1-c1nnc3ccccn13)OCO2 shows cell count strictly lower than 7000.
Reply: FALSE

Task item: Determine if CC(C)N(CCC(c1ccccc1)c1cc(CO)ccc1O)C(C)C (stereo not drawn) shows cell count strictly lower than 7000.
Reply: FALSE

Task item: Determine if CC(C)CCN1c2nc(Nc3cc(F)c(O)c(F)c3)ncc2N(C)C(=O)C1C (stereo not drawn) shows cell count strictly lower than 7000.
Reply: TRUE

Further cases:
Task item: Determine if C=C[C@@]1(C)CC(=O)[C@@]2(O)[C@@]3(C)C(O)CCC(C)(C)[C@@H]3C(O)C(OC(C)=O)[C@@]2(C)O1 (stereo partly drawn) shows cell count strictly lower than 7000.
Reply: FALSE

Task item: Determine if NO shows cell count strictly lower than 7000.
Reply: FALSE

Task item: Determine if Cc1cccc(CN2CCN(c3ncnc4sccc34)CC2=O)c1 shows cell count strictly lower than 7000.
Reply: TRUE

Task item: Determine if CC(=O)OCC(=O)[C@]12N=C(C)O[C@@H]1C[C@H]1[C@@H]3CCC4=CC(=O)C=C[C@]4(C)[C@@H]3C(O)C[C@@]12C (stereo partly drawn) shows cell count strictly lower than 7000.
Reply: TRUE

Hello, the source for this data is PubChem BioAssay, in case you need it.
